Measured pIC50 values are reported for all entries that follow.
# test-summary: Compound was tested for the Inhibition of human Secretory phospholipase A 2 acyl hydrolysis using a membrane assay; inactive
pIC50: −log10 of the molar value.

| compound | pIC50 |
| --- | --- |
| CCCCCCCCCCCCC(=O)NC(CCCC)CCc1nnn[nH]1 (stereo not given) | 5.18 |
| CCCCCCCCCCCCCCCCCCOCC(COCC(F)(F)F)NC(C)=O (stereo not given) | 4.00 |
| CCCCCCCCCCCCCCCCCCOCC(CCS(=O)(=O)c1ccc(C)cc1)NC(C)=O (stereo not given) | 4.30 |
| CCCCCCCCOC[C@H](CO[P@](=O)(O)OCCN)O[P@@](=O)(O)CCCCCCC | 6.00 |
| C=CCCC(COCCCCCCCCCCCCCCCCCC)NC(C)=O (stereo not given) | 5.10 |
| CCCCCCCCCCCCCCCCCCOCC(CCCC)NC(C)=O (stereo not given) | 4.22 |
| CCCCCCCCCCCCCCCCCCOCC(CC[S+](C)[O-])NC(C)=O (stereo not given) | 4.22 |
| CCCCCCCCCCCCCCCCCCOCC(CCc1nnn[nH]1)NC(C)=O (stereo not given) | 6.24 |
| CCCCCCCCCCCCC(=O)NC(COCCC)COP(=O)(O)OCCO (stereo not given) | 6.00 |
| CCCCCCCCCCCCCCCCCCOCC(CCC(O)CO)NC(C)=O (stereo not given) | 5.05 |

###

# system: Phospholipase A2, membrane associated (group IIA)
# test-summary: Compound was tested for the Inhibition of human Secretory phospholipase A 2 acyl hydrolysis using a membrane assay; Inactive

| compound | IC50 |
| --- | --- |
| CCCCCCCCCCCCCCCCCCOCC(CCCCO)NC(C)=O (stereo unspecified) | > 200 µM |
